Molecular target: GST-SBP-SLBP (stem-loop binding protein) (Homo sapiens, UniProt Q14493 1-270)
Assay: targeted RNA Bind-n-Seq; RBNS binding buffer: 25 mM Tris pH 7.5, 150 mM KCl, 3 mM MgCl2, 0.1% Tween, 0.5 mg/mL BSA, 1 mM DTT; 27 nM protein, 750 pM RNA pool; temperature not stated; high values mean tight binding
Settings: protein: recombinant; tags: N-terminal GST and SBP (pGEX6P1-SBP)
Exam item: assign t to entries whose binding signal is below 3 log2 fold change and f to entries at or above 3 log2 fold change. Note that a value of exactly 3 log2 fold change receives f.

Field: below-cutoff. Rule: recorded binding signal strictly less than 3 log2 fold change. Subject: consensus (structured_RNA) RNA: GGUCACGUCUCAAUCAACUCCCAAAGGUUUUUUUCAGAACCACCCAUCAACAGCUCGCAGUCAAG
t

Field: below-cutoff. Rule: recorded binding signal strictly less than 3 log2 fold change. Subject: consensus (structured_RNA) RNA: GGUCACGUCUCAAUCAACUCCCAAAGGUCCUUUUAAGGGCCACCCAUCAACAGCUCGCAGUCAAG
f

Field: below-cutoff. Rule: recorded binding signal strictly less than 3 log2 fold change. Subject: consensus (structured_RNA) RNA: GGUCACGUCUCAAUCAACUCCCAAAGGCUUUUUUCAAGGCCACCCAUCAACAGCUCGCAGUCAAG
f

Field: below-cutoff. Rule: recorded binding signal strictly less than 3 log2 fold change. Subject: consensus (structured_RNA) RNA: GGUCACGUCUCAAUCAACUCCCAAAGGUCUUUUUUAAGGCCACCCAUCAACAGCUCGCAGUCAAG
t

Field: below-cutoff. Rule: recorded binding signal strictly less than 3 log2 fold change. Subject: consensus (structured_RNA) RNA: GGUCACGUCUCAAUCAACUCCCAAAGGUCUUUUUAAGGGCCACCCAUCAACAGCUCGCAGUCAAG
t

Field: below-cutoff. Rule: recorded binding signal strictly less than 3 log2 fold change. Subject: consensus (structured_RNA) RNA: GGUCACGUCUCAAUCAACUCCCAAAGGUCCUUCUGAGGACCACCCAUCAACAGCUCGCAGUCAAG
t

Field: below-cutoff. Rule: recorded binding signal strictly less than 3 log2 fold change. Subject: consensus (structured_RNA) RNA: GGUCACGUCUCAAUCAACUCCCAAAGGCUUUUUUAAAGGCCACCCAUCAACAGCUCGCAGUCAAG
f
